Recorded values, source patent US11708367B2.

Target: Mer (Homo sapiens (Human), UniProt Q12866)
Assay: Mer autophosphorylation ELISA in transient transfected 293A cells
Type: cell-based
Conditions: cellular, MERTK-transfected 293A cells, phospho-Mer ELISA
Sequence (Q12866 21-999): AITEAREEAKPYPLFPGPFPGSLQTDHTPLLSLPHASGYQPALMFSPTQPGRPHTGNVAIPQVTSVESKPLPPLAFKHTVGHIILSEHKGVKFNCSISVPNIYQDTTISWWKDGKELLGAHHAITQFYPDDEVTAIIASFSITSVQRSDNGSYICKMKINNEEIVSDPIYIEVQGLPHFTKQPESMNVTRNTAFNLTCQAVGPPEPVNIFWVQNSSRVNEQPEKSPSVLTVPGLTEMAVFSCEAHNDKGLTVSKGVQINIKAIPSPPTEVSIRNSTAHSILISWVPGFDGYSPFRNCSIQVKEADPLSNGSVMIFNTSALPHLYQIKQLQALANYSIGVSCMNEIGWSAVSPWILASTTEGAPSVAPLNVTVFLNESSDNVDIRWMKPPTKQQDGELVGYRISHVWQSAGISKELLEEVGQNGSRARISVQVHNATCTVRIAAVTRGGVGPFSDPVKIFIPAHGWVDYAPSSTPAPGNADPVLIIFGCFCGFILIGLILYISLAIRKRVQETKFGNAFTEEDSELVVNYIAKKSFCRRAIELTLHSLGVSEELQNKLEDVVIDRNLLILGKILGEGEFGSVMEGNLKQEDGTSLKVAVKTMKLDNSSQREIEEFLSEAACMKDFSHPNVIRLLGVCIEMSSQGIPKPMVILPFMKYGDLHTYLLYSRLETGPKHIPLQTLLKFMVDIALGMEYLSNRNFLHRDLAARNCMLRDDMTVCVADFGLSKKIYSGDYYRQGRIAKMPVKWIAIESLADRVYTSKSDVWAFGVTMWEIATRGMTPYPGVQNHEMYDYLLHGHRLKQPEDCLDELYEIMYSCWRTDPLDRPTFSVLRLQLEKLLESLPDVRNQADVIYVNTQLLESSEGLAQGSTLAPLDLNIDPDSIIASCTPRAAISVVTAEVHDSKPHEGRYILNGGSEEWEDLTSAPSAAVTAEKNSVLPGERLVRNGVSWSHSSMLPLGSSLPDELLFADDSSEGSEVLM
property: IC50

Examples with answers:
molecular-string: COc1cc2ncnc(Oc3ccc(NC(=O)C4(C(=O)Nc5ccc(F)cc5)CC4)c(F)c3)c2nc1OC
IC50: 10 to 100 nM

molecular-string: COc1nc2c(Oc3ccc(NC(=O)C4(C(=O)Nc5ccc(F)cc5)CC4)cc3C)ncnc2cc1OCCCN1CCOCC1
IC50: 10 to 100 nM

molecular-string: COc1cc2ncnc(Oc3cc(F)c(NC(=O)C4(C(=O)Nc5ccc(F)cc5)CC4)cc3F)c2nc1OC
IC50: ≤ 10 nM

molecular-string: COc1cc2nccc(Oc3ccc(NC(=O)C4(C(=O)Nc5ccc(F)cc5)CC4)cc3F)c2nc1OC
IC50: ≤ 10 nM

molecular-string: COc1nc2c(Oc3ccc(NC(=O)C4(C(=O)Nc5ccc(F)cc5)CC4)cc3F)ncnc2cc1OCCCN1CCOCC1
IC50: ≤ 10 nM

molecular-string: COc1cc2ncnc(Oc3ccc(NC(=O)C4(C(=O)Nc5ccc(F)cc5)CC4)cc3F)c2nc1OC
IC50: ≤ 10 nM

Data request: Give its IC50 value. Item: Cn1cc(-c2cnc3c(Oc4ccc(NC(=O)C5(C(=O)Nc6ccc(F)cc6)CC5)cc4)ncnc3c2)cn1
Data returned: 100 to 300 nM

###

Below is a list of entries, each paired with its recorded IC50 value.
Target: Met (Homo sapiens (Human))
Experiment: Human Met kinase assay (33P radiometric, KinaseProfiler)
Format: biochemical
Settings: 10 μM ATP, read-out: c-Met IC50

Below are worked cases with known answers.
molecular-string: N#Cc1ccc2ncnc(Oc3ccc(NC(=O)C4(C(=O)Nc5ccc(F)cc5)CC4)cc3)c2c1
property: IC50
result: > 1000 nM

molecular-string: COc1cc2ncnc(Oc3ccc(NC(=O)C4(C(=O)Nc5ccc(F)cc5)CC4)cc3)c2cc1C(=O)NCCN1CCCC1
property: IC50
result: 10 to 100 nM

molecular-string: O=C(Nc1ccc(F)cc1)C1(C(=O)Nc2ccc(Oc3ncnc4cc(Cl)cnc34)cc2)CC1
property: IC50
result: 100 to 1000 nM

molecular-string: COc1cc2ncnc(Oc3ccc(NC(=O)C4(C(=O)Nc5ccc(F)cc5)CC4)cc3)c2cc1C(=O)NC1CC1
property: IC50
result: 10 to 100 nM

molecular-string: COc1cc2ncnc(Oc3ccc(NC(=O)C4(C(=O)Nc5ccc(F)cc5)CC4)cc3)c2cc1C(=O)NC[C@@H]1CCCN1
property: IC50
result: 10 to 100 nM

molecular-string: COc1cc2nccc(Oc3ccc(NC(=O)C4(C(=O)Nc5ccc(F)cc5)CC4)cc3Cl)c2nc1OC
property: IC50
result: ≤ 10 nM

Next compound, IC50 to be filled in.
Data request: Met (Homo sapiens (Human)) / IC50 / O=C(Nc1ccc(F)cc1)C1(C(=O)Nc2ccc(Oc3ncnc4ccncc34)cc2)CC1 : value?
Data returned: 100 to 1000 nM

###

Listing of entries alongside the reported pIC50.
Biological target: Mer (Homo sapiens (Human))
Test: Human Mer kinase assay (33P radiometric, KinaseProfiler)
Format: biochemical
Conditions: 10 μM ATP
Sequence (Q12866 557-882): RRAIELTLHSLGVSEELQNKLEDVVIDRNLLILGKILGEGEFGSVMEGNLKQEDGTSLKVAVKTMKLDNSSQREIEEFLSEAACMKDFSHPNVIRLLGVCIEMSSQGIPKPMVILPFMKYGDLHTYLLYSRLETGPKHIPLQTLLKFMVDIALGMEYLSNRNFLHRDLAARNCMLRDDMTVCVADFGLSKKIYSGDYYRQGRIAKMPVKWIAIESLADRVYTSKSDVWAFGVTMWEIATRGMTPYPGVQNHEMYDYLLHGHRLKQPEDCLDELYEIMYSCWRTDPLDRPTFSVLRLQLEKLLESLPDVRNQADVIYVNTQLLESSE
pIC50: −log10 of the molar value.

molecular-string: COc1cnc2c(Oc3ccc(NC(=O)C4(C(=O)Nc5ccc(F)cc5)CC4)cc3)ncnc2c1
pIC50: 6.00 to 7.00
//
molecular-string: COc1cc2ncnc(Oc3ccc(NC(=O)C4(C(=O)Nc5ccc(F)cc5)CC4)cc3)c2cc1C(=O)NCCN1CCCC1
pIC50: ≥ 8.00
//
molecular-string: O=C(Nc1ccc(F)cc1)C1(C(=O)Nc2ccc(Oc3ncnc4cnc(Cl)cc34)cc2)CC1
pIC50: 6.00 to 7.00
//
molecular-string: O=C(Nc1ccc(F)cc1)C1(C(=O)Nc2ccc(Oc3ncnc4cc(Cl)ncc34)cc2)CC1
pIC50: 6.00 to 7.00
//
molecular-string: COc1cc2ncnc(Oc3ccc(NC(=O)C4(C(=O)Nc5ccc(F)cc5)CC4)cc3Cl)c2nc1OC
pIC50: ≥ 8.00
//
molecular-string: COc1cc2ncnc(Oc3ccc(NC(=O)C4(C(=O)Nc5ccc(F)cc5)CC4)cc3)c2cc1C(=O)NC[C@@H]1CCCN1C(=O)OC(C)(C)C
pIC50: 7.00 to 8.00
//
molecular-string: COc1cc2ncnc(Oc3ccc(NC(=O)C4(C(=O)Nc5ccc(F)cc5)CC4)cc3F)c2nc1OC
pIC50: ≥ 8.00
//
molecular-string: COc1cc2ncnc(Oc3ccc(NC(=O)C4(C(=O)Nc5ccc(F)cc5)CC4)cc3)c2nc1C#N
pIC50: 7.00 to 8.00

We now examine a further molecule.
Data request: What does the record list as pIC50 for COc1nc2c(Oc3ccc(NC(=O)C4(C(=O)Nc5ccc(F)cc5)CC4)cc3Cl)ncnc2cc1OCCCN1CCOCC1 ?
Data returned: ≥ 8.00

###

The following compounds are listed with their measured IC50 values.
Biological target: KDR (Homo sapiens (Human))
Sequence (P35968 20-1356): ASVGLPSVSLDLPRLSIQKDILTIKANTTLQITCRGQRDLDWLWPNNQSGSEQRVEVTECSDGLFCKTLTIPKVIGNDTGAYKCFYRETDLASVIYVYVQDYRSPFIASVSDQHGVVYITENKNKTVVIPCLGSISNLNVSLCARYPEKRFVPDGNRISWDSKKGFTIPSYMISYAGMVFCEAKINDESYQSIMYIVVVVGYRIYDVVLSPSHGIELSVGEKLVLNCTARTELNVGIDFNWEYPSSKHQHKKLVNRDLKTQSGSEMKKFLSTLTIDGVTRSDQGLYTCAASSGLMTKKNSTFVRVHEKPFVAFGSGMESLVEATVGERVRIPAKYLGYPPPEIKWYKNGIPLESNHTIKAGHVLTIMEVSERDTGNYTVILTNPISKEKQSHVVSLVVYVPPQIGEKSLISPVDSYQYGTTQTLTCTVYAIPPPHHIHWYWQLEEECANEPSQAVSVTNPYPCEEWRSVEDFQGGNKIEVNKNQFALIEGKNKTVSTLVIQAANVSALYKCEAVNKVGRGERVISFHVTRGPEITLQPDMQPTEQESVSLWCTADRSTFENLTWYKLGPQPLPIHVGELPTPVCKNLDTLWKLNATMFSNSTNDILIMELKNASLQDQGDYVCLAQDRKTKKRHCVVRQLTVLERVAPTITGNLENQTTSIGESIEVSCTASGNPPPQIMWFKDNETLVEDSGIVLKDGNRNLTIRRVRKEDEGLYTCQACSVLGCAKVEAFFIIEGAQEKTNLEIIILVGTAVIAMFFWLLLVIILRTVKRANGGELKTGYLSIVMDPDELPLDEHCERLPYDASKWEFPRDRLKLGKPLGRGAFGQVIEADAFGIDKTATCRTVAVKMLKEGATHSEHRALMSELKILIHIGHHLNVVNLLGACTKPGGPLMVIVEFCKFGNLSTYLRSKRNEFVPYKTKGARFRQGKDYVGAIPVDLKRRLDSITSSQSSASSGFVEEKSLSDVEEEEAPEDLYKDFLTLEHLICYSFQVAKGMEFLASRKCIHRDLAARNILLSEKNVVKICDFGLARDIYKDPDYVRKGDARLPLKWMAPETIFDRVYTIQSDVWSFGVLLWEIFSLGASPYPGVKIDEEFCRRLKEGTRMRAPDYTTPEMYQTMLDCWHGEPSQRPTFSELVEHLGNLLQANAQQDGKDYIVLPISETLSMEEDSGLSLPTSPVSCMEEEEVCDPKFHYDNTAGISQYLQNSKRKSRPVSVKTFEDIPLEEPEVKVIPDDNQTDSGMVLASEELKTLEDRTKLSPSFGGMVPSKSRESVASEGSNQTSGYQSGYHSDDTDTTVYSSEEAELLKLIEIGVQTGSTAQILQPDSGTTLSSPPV
Assay: KDR autophosphorylation ELISA in HUVEC cells
Conditions: cellular, VEGF165-stimulated, phospho-KDR ELISA

Data request: Requested field: IC50. Item: COCCOc1cc2ncnc(Oc3ccc(NC(=O)C4(C(=O)Nc5ccc(F)cc5)CC4)cc3F)c2nc1OC
Data returned: ≤ 10 nM

Data request: Give its IC50 value. Item: COCCOc1cc2nccc(Oc3cc(F)c(NC(=O)C4(C(=O)Nc5ccc(F)cc5)CC4)cc3F)c2nc1OC
Data returned: ≤ 10 nM

###

Biological target: Human Axl (Homo sapiens (Human), UniProt P30530, Q764R)
Sequence (P30530 473-894 Q764R): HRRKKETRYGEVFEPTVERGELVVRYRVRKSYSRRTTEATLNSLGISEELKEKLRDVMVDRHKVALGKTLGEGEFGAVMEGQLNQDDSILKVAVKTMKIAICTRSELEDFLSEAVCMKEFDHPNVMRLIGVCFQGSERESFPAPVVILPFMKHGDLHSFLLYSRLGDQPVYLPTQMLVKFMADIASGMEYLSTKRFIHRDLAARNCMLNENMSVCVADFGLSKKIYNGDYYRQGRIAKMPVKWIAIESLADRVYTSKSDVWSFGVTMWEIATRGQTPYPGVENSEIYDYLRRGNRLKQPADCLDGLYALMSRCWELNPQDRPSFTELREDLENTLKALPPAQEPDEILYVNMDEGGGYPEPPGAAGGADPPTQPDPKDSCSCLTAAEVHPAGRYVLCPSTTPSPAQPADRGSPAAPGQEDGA
Assay: Human AXL kinase assay (33P radiometric, KinaseProfiler)
Details: 10 μM ATP
property: IC50

Illustrative cases are given below, each with its answer.
compound: COc1cnc2c(Oc3ccc(NC(=O)C4(C(=O)Nc5ccc(F)cc5)CC4)cc3)ncnc2c1 [Compound 16]
IC50: 100 to 1000 nM
--
compound: COc1cc2ncnc(Oc3ccc(NC(=O)C4(C(=O)Nc5ccc(F)cc5)CC4)cc3)c2cc1C(=O)NC[C@H]1CCCN1 [Compound 121]
IC50: ≤ 10 nM
--
compound: COc1cc2ncnc(Oc3ccc(NC(=O)C4(C(=O)Nc5ccc(F)cc5)CC4)cc3)c2cc1C(=O)NC[C@@H]1CCCN1C(=O)OC(C)(C)C [Compound 120]
IC50: 10 to 100 nM
--
compound: COc1cc2nccc(Oc3ccc(NC(=O)C4(C(=O)Nc5ccc(F)cc5)CC4)cc3Cl)c2nc1OC [Compound 141]
IC50: 10 to 100 nM
--
compound: COc1nc2c(Oc3ccc(NC(=O)C4(C(=O)Nc5ccc(F)cc5)CC4)cc3F)ncnc2cc1OCCCN1CCOCC1 [Compound 67]
IC50: ≤ 10 nM

Data request: # IC50 lookup, item Cc1cc2ncnc(Oc3ccc(NC(=O)C4(C(=O)Nc5ccc(F)cc5)CC4)cc3)c2nc1C [Compound 43]
Data returned: 100 to 1000 nM

###

Target: KDR (Homo sapiens (Human))
Assay: KDR autophosphorylation ELISA in HUVEC cells
Conditions: cellular, VEGF165-stimulated, phospho-KDR ELISA
# IC50 per record follows

See these solved cases before continuing.
molecular-string: COc1cc2nccc(Oc3ccc(NC(=O)C4(C(=O)Nc5ccc(F)cc5)CC4)cc3Cl)c2nc1C(N)=O
IC50: 10 to 100 nM
--
molecular-string: COc1cc2ncnc(Oc3ccc(NC(=O)C4(C(=O)Nc5ccc(F)cc5)CC4)cc3)c2cc1C(=O)NC[C@H]1CCCN1C(=O)OC(C)(C)C
IC50: 10 to 100 nM
--
molecular-string: CNC(=O)c1nc2c(Oc3ccc(NC(=O)C4(C(=O)Nc5ccc(F)cc5)CC4)cc3F)ccnc2cc1OC
IC50: 100 to 300 nM
--
molecular-string: COCCOc1cc2ncnc(Oc3cc(F)c(NC(=O)C4(C(=O)Nc5ccc(F)cc5)CC4)cc3F)c2nc1OC
IC50: ≤ 10 nM
--
molecular-string: COc1cc2nccc(Oc3cc(F)c(NC(=O)C4(C(=O)Nc5ccc(F)cc5)CC4)cc3F)c2nc1OC
IC50: ≤ 10 nM
--
molecular-string: COc1cc2ncnc(Oc3ccc(NC(=O)C4(C(=O)Nc5ccc(F)cc5)CC4)cc3)c2cc1C(=O)NC[C@@H]1CCCN1
IC50: > 300 nM
--
molecular-string: COc1cc2ncnc(Oc3ccc(NC(=O)C4(C(=O)Nc5ccc(F)cc5)CC4)cc3F)c2nc1OC
IC50: ≤ 10 nM
--
molecular-string: COc1cc2nccc(Oc3ccc(NC(=O)C4(C(=O)Nc5ccc(F)cc5)CC4)cc3Cl)c2nc1C#N
IC50: 10 to 100 nM
--
molecular-string: COc1cc2ncnc(Oc3ccc(NC(=O)C4(C(=O)Nc5ccc(F)cc5)CC4)c(C)c3)c2nc1OC
IC50: 100 to 300 nM
--
molecular-string: COCCOc1cc2nccc(Oc3ccc(NC(=O)C4(C(=O)Nc5ccc(F)cc5)CC4)cc3F)c2nc1OC
IC50: ≤ 10 nM

Data request: Look at this compound and give its reported IC50. COc1cc2ncnc(Oc3ccc(NC(=O)C4(C(=O)Nc5ccc(F)cc5)CC4)cc3)c2cc1C(=O)NC1COC1
Data returned: 10 to 100 nM

Data request: Which IC50 is reported for this compound? COc1cc2nccc(Oc3ccc(NC(=O)C4(C(=O)Nc5ccc(F)cc5)CC4)cc3Cl)c2nc1OC
Data returned: ≤ 10 nM

Data request: Dear colleague, I am looking for the recorded IC50 of the following compound: COc1nc2c(Oc3ccc(NC(=O)C4(C(=O)Nc5ccc(F)cc5)CC4)c(F)c3F)ncnc2cc1OCCCN1CCOCC1
Data returned: ≤ 10 nM

Data request: Endpoint output: IC50 of COc1cc2c(Oc3ccc(NC(=O)C4(C(=O)Nc5ccc(F)cc5)CC4)cc3)ncnc2cn1 . Value?
Data returned: > 300 nM
